All figures here come from patent US10028913B2.

Experiment: Tissue distribution in S-180 tumor-bearing mice
Type: in vivo
Conditions: male, Kunming, mouse, spleen, intravenous; 4 mg/kg i.v., t 4 h; read-out: concentration of mitoxantrone in Spleen
EXPERIMENTAL ENDPOINT: concentration at 4 h (ng/g)
Kindly provide the numeric value in ng/g only, without the unit symbol.

Endpoint output: concentration at 4 h of O=C1c2c(O)ccc(O)c2C(=O)c2c(NCCNCCO)ccc(NCCNCCO)c21 [FM, mitoxantrone] . Value? 4460

---

Test: Tissue distribution in S-180 tumor-bearing mice
Assay type: in vivo
Details: male, Kunming, mouse, bone marrow, intravenous; 4 mg/kg i.v., t 1 h; read-out: concentration of mitoxantrone in Bone marrow
EXPERIMENTAL ENDPOINT: concentration at 1 h

Name the recorded concentration at 1 h for O=C1c2c(O)ccc(O)c2C(=O)c2c(NCCNCCO)ccc(NCCNCCO)c21 [FM, mitoxantrone] . 127 ng/g

---

Assay: Tissue distribution in S-180 tumor-bearing mice
Format: in vivo
Conditions: male, Kunming, mouse, spleen, intravenous; 4 mg/kg i.v., t 8 h; read-out: concentration of mitoxantrone in Spleen
EXPERIMENTAL ENDPOINT: concentration at 8 h (ng/g)
Just the number please, in ng/g, no unit attached.

Quick one: concentration at 8 h for O=C1c2c(O)ccc(O)c2C(=O)c2c(NCCNCCO)ccc(NCCNCCO)c21 ? 3770

---

Experiment: Tissue distribution in S-180 tumor-bearing mice
Format: in vivo
Settings: male, Kunming, mouse, lung, intravenous; 4 mg/kg i.v., t 1 h; read-out: concentration of mitoxantrone in Lung
Description: There were obvious differences in tissue distribution between PLM60 and FM in tumor-bearing mice. Male Kunming mice having a body weight about 20 g were used in the present example. […] Drugs were injected through vein in mice when tumor grew to 0.4-0.7 g. After the administration of drugs, mice were executed at various time points and their tissues were taken out to determine the concentration of mitoxantrone. […]
EXPERIMENTAL ENDPOINT: concentration at 1 h (ng/g)
Report only the number, with the unit ng/g understood.

Bench note: what concentration at 1 h did O=C1c2c(O)ccc(O)c2C(=O)c2c(NCCNCCO)ccc(NCCNCCO)c21 show? 10200

---

Test: Pharmacokinetics of PLM60 and FM in Kunming mice (plasma level of mitoxantrone)
Format: in vivo
Details: male, Kunming, mouse, iv, 2 mg/kg, tail vein
EXPERIMENTAL ENDPOINT: AUC(0-inf) (ng·h/mL)
Please state the figure in ng·h/mL; there is no need to write the unit.

// lookup AUC(0-inf) for O=C1c2c(O)ccc(O)c2C(=O)c2c(NCCNCCO)ccc(NCCNCCO)c21 199

---

Test: Tissue distribution in S-180 tumor-bearing mice
Type: in vivo
Settings: male, Kunming, mouse, kidney, intravenous; 4 mg/kg i.v., t 8 h; read-out: concentration of mitoxantrone in Kidney
EXPERIMENTAL ENDPOINT: concentration at 8 h (ng/g)
Your answer should be a plain number; it is taken to be in ng/g.

Need concentration at 8 h of O=C1c2c(O)ccc(O)c2C(=O)c2c(NCCNCCO)ccc(NCCNCCO)c21 , thanks. 13400

---

Experiment: Tissue distribution in S-180 tumor-bearing mice
Type: in vivo
Settings: male, Kunming, mouse, lung, intravenous; 4 mg/kg i.v., t 4 h; read-out: concentration of mitoxantrone in Lung
EXPERIMENTAL ENDPOINT: concentration at 4 h
Answer format: number, then unit.

Would you mind telling me what concentration at 4 h value was observed for O=C1c2c(O)ccc(O)c2C(=O)c2c(NCCNCCO)ccc(NCCNCCO)c21 ? 8020 ng/g
